assay: qHTS RealTime-Glo MT Cell Viability Assay in HEK293 cells - 16 hour (AID 1224872); details: RealTime-Glo luminescence; series mostly up to 76.8 µM; further: top concentration of the series differs between compounds; nearly all actives have a fitted effect of over 50% in size
Results filed as inconclusive are left out. Active and inactive are the calls of the source. The call rests on the fitted dose curve; in most records, active means well fitted cell-killing curve with a large enough effect in the repeat runs; inconclusive means weak or mixed curves, or effect the other way; inactive means flat fitted curve, though single readings scatter.
Parameter Measured: outcome

// worked examples, outcome included
CNC(=O)Oc1ccccc1OC(C)C    inactive
CC(Oc1ccc(Cl)cc1Cl)C(=O)O (centres undefined)    inactive
CCOP(OCC)OCC    inactive
CCCCCCCCCl    inactive

[ask] Given the entry CC(C)OC(=O)Nc1ccccc1 , report its measured outcome.
[reply] inactive

[ask] Given the entry CC(=O)C=C(C)C , report its measured outcome.
[reply] inactive

[ask] Given the entry CN1C(=O)CN=C(c2ccccc2)c2cc(Cl)ccc21 , report its measured outcome.
[reply] inactive

[ask] Given the entry O=S(=O)(c1ccc(Cl)cc1)c1cc(Cl)c(Cl)cc1Cl , report its measured outcome.
[reply] inactive

[ask] Given the entry CC(C)OC(=O)Nc1cccc(Cl)c1 , report its measured outcome.
[reply] inactive

[ask] Given the entry COc1ccc2c3c1O[C@H]1[C@@H](O)C=C[C@H]4[C@@H](C2)N(C)CC[C@@]341 , report its measured outcome.
[reply] inactive

[ask] Given the entry COP(N)(=O)SC (centres undefined) , report its measured outcome.
[reply] inactive
